target: T1, hCD137-mFc-Avi (human; mouse, UniProt Q07011 24-186, one biotin on the Avi sequence of each monomer (BirA); unbiotinylated in the SPR of Example 5.6); assay: flow cytometry of the yeast-displayed clone, 10 nM dimeric human antigen
T1 construct: Made in-house in HEK293-6E; also called human CD137-mFc-Avi; dimeric human CD137; not shown: mouse IgG2a Fc domain (mIgG2a Fc)
T1 sequence (Q07011 24-186): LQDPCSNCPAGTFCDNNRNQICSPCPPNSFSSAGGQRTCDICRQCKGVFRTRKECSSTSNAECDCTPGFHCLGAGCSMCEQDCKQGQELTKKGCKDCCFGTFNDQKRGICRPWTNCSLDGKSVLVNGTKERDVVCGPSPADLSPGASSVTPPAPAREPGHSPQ
reported.endpoint: % APC positive cells

Given item FS22-053-010, yeast-displayed clone (designed binder) GQPREPQVYTLPPSRDELNPPYLFSNQVSLTCLVKGFYPSDIAVEWESNGQPENNYKTTPPVLDSDGSFFLYSKLTVDYMRWLDGNVFSCSVMHEALHNHYTQKSLSLSPG , the value recorded as its % APC positive cells is > 30%

Given item FS22-053-008, yeast-displayed clone (designed binder) GQPREPQVYTLPPSRDELNPPYLFSNQVSLTCLVKGFYPSDIAVEWESNGQPENNYKTTPPVLDSDGSFFLYSKLTVDYWRWLEGNVFSCSVMHEALHNHYTQKSLSLSPG , the value recorded as its % APC positive cells is > 30%
